Target desc: UniProt P33032
Sequence (P33032 whole entry): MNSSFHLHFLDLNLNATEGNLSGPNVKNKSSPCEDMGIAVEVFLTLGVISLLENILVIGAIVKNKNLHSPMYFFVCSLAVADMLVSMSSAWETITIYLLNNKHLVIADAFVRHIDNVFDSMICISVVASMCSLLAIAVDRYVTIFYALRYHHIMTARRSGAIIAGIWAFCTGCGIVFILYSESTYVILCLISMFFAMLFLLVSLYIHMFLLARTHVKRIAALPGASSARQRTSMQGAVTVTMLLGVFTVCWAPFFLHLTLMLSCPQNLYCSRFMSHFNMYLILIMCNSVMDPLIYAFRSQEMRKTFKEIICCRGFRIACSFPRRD
Test: Binding affinity in competition with [125I]NDP-MSH on recombinant melanocortin 5 receptor
pKi: −log10 of the molar value.
Measured metric: pKi

| Smiles str | Measured metric | Comparison sign | Measurement |
| --- | --- | --- | --- |
| O=C(NCCc1c[nH]cn1)[C@@H]1C[C@H](O)CN1Cc1ccc2ccccc2c1 | pKi | = | 4.30 |
| COc1ccc(CN[C@H](CCCNC(=N)N)C(=O)O)cc1OC | pKi | < | 6.00 |
| N=C(N)NCCC[C@H](NCc1ccc2ccccc2c1)C(N)=O | pKi | < | 6.00 |
| N=C(N)NCCC[C@H](NCc1ccc2ccccc2c1)C(=O)Nc1ccc2ccccc2c1 | pKi | = | 5.18 |
| COc1ccc(CN[C@@H](CCCNC(=N)N)C(N)=O)c(Cl)c1OC | pKi | < | 6.00 |
